- Test system: HL-60(TB) leukemia
- Procedure Text: NCI tumour cell line growth inhibition, 48 h
Measured Parameter: TGI

>>> recorded_measurement("NNC(=O)C(=O)N/N=C1/CCCC1C(=O)CCC(=O)Nc1ccc(Cl)cc1 (stereo not given)")
"> 100 µM"
>>> recorded_measurement("Cc1nnc2n(c1=O)CCCN2C")
"> 100 µM"
>>> recorded_measurement("CN(C)CCN(c1ccccn1)c1ccccn1")
"> 100 µM"
>>> recorded_measurement("COC(=O)C1C(C(=O)OC)C2C(=O)C3C(C(=O)OC)C(C(=O)OC)C3C(=O)C12 (stereo not given)")
"> 100 µM"
>>> recorded_measurement("N#Cc1c(-c2ccc([N+](=O)[O-])cc2)cc(-c2ccc(Nc3ccnc4cc(Cl)ccc34)cc2)[nH]c1=O")
"> 100 µM"

* * *

Recorded TGI for the following compounds
- Test system: SW-620 colon
- Procedure Text: NCI tumour cell line growth inhibition, 48 h
Measured Parameter: TGI

>>> recorded_measurement("COC(=O)C(Cc1cn(C(C)n2cc(CC(NC(C)=O)C(=O)OC)c3ccccc32)c2ccccc12)NC(C)=O (stereo not given)")
"> 100 µM"
>>> recorded_measurement("O=C1/C(=C/c2ccc(Cl)c(Cl)c2)CN(C(=O)CCN2CCC(=NO)CC2)C/C1=C\\c1ccc(Cl)c(Cl)c1")
"0.708 µM"
>>> recorded_measurement("Nc1ncnc2c1nnn2C1C=CC(CP(=O)(O)O)C1 (stereo not given)")
"> 100 µM"
>>> recorded_measurement("COc1nc2c(c(O)c(C)c(=O)n2OC2OCC(OC(C)=O)C(OC(C)=O)C2OC(C)=O)c(=O)n1C (stereo not given)")
"> 100 µM"
>>> recorded_measurement("CCOC(=O)c1csc(NC(=O)C(C)N2CCCC2)n1 (stereo not given)")
"> 100 µM"
>>> recorded_measurement("Cc1ccc(O)cc1Nc1ccnc2ccc(S(C)(=O)=O)cc12")
"> 25 µM"
>>> recorded_measurement("O=c1c(F)cn2c(=O)n1CCCCCCCn1c(=O)c(F)cn(c1=O)CCCCCCC2")
"> 100 µM"
>>> recorded_measurement("c1c[nH]c(-c2cccc3nsnc23)c1")
"> 100 µM"
>>> recorded_measurement("O=C(/C=C/c1ccc(O)c(O)c1)OCCc1ccc2ccccc2c1")
"20.7 µM"
>>> recorded_measurement("O=C1c2cccc(Oc3ccccc3)c2C(=O)c2cccc(Oc3ccccc3)c21")
"> 100 µM"

* * *

- Test system: MDA-MB-435
Classes used: active, inactive

>>> label("CCCCCOc1ccc(/C=N/Nc2cc(C)nc3ccc(Cl)cc23)cc1")
"inactive"
>>> label("CCN(CC)Cc1cc(Nc2nc(NC3CCC(N(C)C)CC3)c3ccccc3n2)ccc1OC (stereo not given)")
"inactive"
>>> label("N#Cc1nc2c(S(=O)(=O)c3ccc(Cl)cc3)c(N)n(Nc3cccc(Cl)c3)c2nc1C#N")
"active"
>>> label("COc1ccc(OC)c(/C=C/c2nc(=S)n(-c3ccc(Cl)cc3)[nH]2)c1")
"inactive"
>>> label("Cn1nccc1Nc1nccc(-c2ccn([C@H](CO)c3ccc(Cl)c(F)c3)c(=O)c2)n1")
"inactive"

* * *

- Tested on: LOX IMVI melanoma
- Procedure Text: NCI tumour cell line growth inhibition, 48 h
TGI below 5 µM gives FALSE; TGI at or above it gives TRUE.

>>> label("CCOC(=O)C1C(c2ccc(Cl)cc2Cl)NC(c2ccc(C)cc2)C(C(=O)OC)S1(=O)=O (stereo not given)")
"TRUE"
>>> label("COc1ccc2ccc3oc(=O)c(C)cc3c2c1")
"TRUE"
>>> label("COc1cc2c(cc1Nc1nc(N3CCc4ccccc43)c3cc[nH]c3n1)N(C(=O)CN(C)C)CC2")
"TRUE"
>>> label("CCOC(=O)c1c(N2CCCC2)[nH]c(=O)c(C(c2ccc(OC)cc2)c2c(O)c(C(=O)OCC)c(N3CCCC3)[nH]c2=O)c1O")
"TRUE"
>>> label("CN(CCN1CCCC1)C1CCc2cc(Cl)c(Cl)cc2C1 (stereo not given)")
"TRUE"
>>> label("Clc1cccc(-c2sc(-c3cccs3)cc2Cc2cccs2)c1")
"TRUE"
>>> label("O=c1oc2ccccc2c(O)c1Cc1ccc(Cc2c(O)c3ccccc3oc2=O)cc1")
"TRUE"
>>> label("COc1ccc(C)cc1N1C(=O)C2ON(Cc3ccc(CC(N)=O)cc3)C(c3c4ccccc4c(Cl)c4ccccc34)C2C1=O (stereo not given)")
"TRUE"
>>> label("OCc1ccc2c(c1)CC1(C2)Cc2cc3c(cc2C1O)CCC3 (stereo not given)")
"TRUE"
>>> label("Cc1c(C)n(-c2ccccc2)c2nc(S(C)=O)nc(S(C)=O)c12 (stereo not given)")
"FALSE"
>>> label("O=C1Oc2ccccc2C(=O)/C1=C1/C=C(c2ccccc2)SS1")
"TRUE"
>>> label("CN(C)CCn1c(=O)c2ccc(NCCCN(C)CCCNc3ccc4c(=O)n(CCN(C)C)c(=O)n5c6ccc(O)cc6c(=O)c3c45)c3c(=O)c4cc(O)ccc4n(c1=O)c23")
"FALSE"
>>> label("CCN(CC)CCCNc1ccc(C)c2sc3ccccc3c(=O)c12")
"FALSE"
>>> label("CN(C)CCNC(=O)c1cccc2c1Nc1ccccc1S2")
"TRUE"
>>> label("O=c1[nH]c(NCc2ccncc2)nc2nc[nH]c12")
"TRUE"
>>> label("CCCCCCCCCCCC[N+]1(CCCCCCCCCCCC)CCCC(C)C1 (stereo not given)")
"FALSE"
>>> label("NCCN1CCCCCc2ccccc21")
"TRUE"
>>> label("COc1ccc2nc(NC(=O)/C(C#N)=C/c3ccccc3)sc2c1")
"TRUE"
>>> label("Cc1cc([N+](=O)[O-])c(C)c2c1[nH]c1ccc(Cl)cc12")
"TRUE"
>>> label("O=[N+]([O-])c1ccc(C[P+]2(c3ccccc3)CCCCC2)cc1")
"TRUE"
>>> label("Cn1nccc1Nc1nccc(-c2ccn([C@H](CO)c3ccc(Cl)c(F)c3)c(=O)c2)n1")
"TRUE"
>>> label("CC1(C)N=C(N)N=C(N)N1c1ccc(CCC(=O)Nc2ccc(S(=O)(=O)F)cc2)cc1")
"TRUE"
>>> label("CC1(C)CC(=O)C2=C(C1)C(c1ccccc1Cl)C1C(=O)CC(C)(C)CC1(O)O2 (stereo not given)")
"TRUE"
>>> label("CCc1c(O)cc(=O)oc1-c1ccc(OC)c(OC)c1")
"TRUE"
>>> label("CN(C)c1nc(Oc2nc(N(C)C)nc(N(C)C)n2)nc(N(C)C)n1")
"TRUE"
>>> label("O=C1CC(c2ccccc2)Oc2ccccc21 (stereo not given)")
"TRUE"
>>> label("COC(=O)/C=C(\\C)CC/C=C(\\C)CCC1OC1(C)C (stereo not given)")
"TRUE"
>>> label("COc1cc(CNc2nc3cc(N)cc(N)c3nc2-c2ccccc2)cc(OC)c1")
"TRUE"
>>> label("O=C1NC(=O)c2c1n(Cc1ccccc1)c(=O)n2Cc1ccccc1")
"TRUE"
>>> label("COCC([C@@H](O)C(O)C(=O)NCC[C@@H](C)c1nc(/C=C/CC2OC3(C[C@H](O)C2C)OC(C(C[C@H](O)C(C)[C@H](O)C(C)/C=C(C)/C(C)=C/C=C/C(C)=C/C#N)OC)[C@@H](OP(=O)(O)O)C3(C)C)co1)N(C)C (stereo not given in full)")
"FALSE"
>>> label("CCCCCCCCCCCCCCCCCCOc1ccccc1CC(=O)NCC[N+]1(C)CCOCC1")
"TRUE"
>>> label("CCCCI(O)OS(=O)(=O)c1ccc(C)cc1")
"TRUE"
>>> label("O=c1c2ccccc2sc2c(CO)ccc(NCCN3CCCCC3)c12")
"TRUE"
>>> label("COc1ccc(C(=O)c2cc(OC)c(OC)c(OC)c2OC)cc1O")
"TRUE"
>>> label("COC(=O)/C=C(/C(=O)OC)C1(C)c2cc(C(=O)OC)c(C(=O)OC)c(N)c2C(=N)N1c1ccccc1 (stereo not given)")
"TRUE"
>>> label("Cn1nc(-c2ccc(S(=O)(=O)/N=C(\\NN)Nc3ccc(Cl)cc3)s2)cc1C(F)(F)F")
"TRUE"
>>> label("COc1ccc2c(c1)c(-c1nc(-c3c[nH]c4ncccc34)cs1)cn2CCCN1CCOCC1")
"FALSE"
>>> label("CNC(=O)c1ncccc1Nc1nc(Nc2cc3c(cc2OC)CCCN3C(=O)CN(C)C)nc2[nH]ccc12")
"FALSE"
>>> label("Cn1c2ccccc2c2ccc3c(c21)C(=O)c1ccc2c4ccccc4n(C)c2c1C3=O")
"TRUE"
>>> label("CC(C)Oc1cccc(N2C(n3ccnc3)=Nc3ccncc3S2(=O)=O)c1")
"TRUE"
